Biological target: Pfs48/45 D1-2 (Plasmodium falciparum 3D7, UniProt Q8I6T1)
Sequence (Q8I6T1 28-289): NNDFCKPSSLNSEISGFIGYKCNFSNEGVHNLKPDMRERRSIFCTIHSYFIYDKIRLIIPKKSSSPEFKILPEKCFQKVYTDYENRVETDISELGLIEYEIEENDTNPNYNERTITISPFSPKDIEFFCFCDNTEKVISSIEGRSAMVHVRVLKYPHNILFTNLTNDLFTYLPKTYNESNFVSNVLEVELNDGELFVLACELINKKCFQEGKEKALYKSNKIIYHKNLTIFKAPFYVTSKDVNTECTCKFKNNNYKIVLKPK
Assay: ELISA
Details: both partners purified
observable: binding result

{"binder": "RUPA-149 (antibody, V domains shown, human IgG1; source: recombinant human IgG1, 293T (Protein A purified) or GenScript) VH: EVQLVESGGGVVQPGGSLRLSCAASGFTFSNFGMHWVRQAPGKGLEWVAKISYDGSNKYYADFVKGRFTISRDKATNTVHLQMNSLSAEDRGIYYCAKDKVFGVVANHHQYGLDVWGQGTTVTVSS VL: DIQMTQSPASLSASVGDRVTITCRASQNIHLYLHWYQQKPGKAPELLIFTTNTLHRGVPSRFRGSGSGTEFALTISDLQPEDFATYYCQQSYTTPHFTFGQGTKLEIK", "value.reported": "binds"}
{"binder": "RUPA-151 (antibody, V domains shown, human IgG1; source: recombinant human IgG1, 293T (Protein A purified) or GenScript) VH: QVQLVQSGAEVKKTGASVKVSCKASGYTFTSHDIIWVRQAAGQGLEWMGWLNPNTGKKGYVEKFQGRVMLTRNMSTGTAYMELSSLRSDDSAIYYCARGVGTYHGSEGWLDPWGQGTLVTVSS VL: QSVLTQPPSASETPGQGVTISCSGSSSNVGSNAVNWYQQLPGRAPKLLMYNTNQRPSGVPDRFSGSKSGTSASLAISGLRSADEADYYCAAWDDSLKRGVFGGGTKLTVL", "value.reported": "binds"}
